Reference for the values: the supplement of paper PMC10567573

B1: FBF1 (parent)
chain: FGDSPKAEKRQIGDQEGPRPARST

- Variants of: B1
- test method notes: protein stability index of a GFP-peptide fusion (GPS, HEK-293T) (PSI 1-6); higher = more stable;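 note: lentivirally expressed fusions sorted by FACS into six bins by GFP to DsRed ratio, PSI derived from sequencing read proportions per bin multiplied by bin number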
- condition notes: c terminus: a fixed tail appended
Quick rule for you: protein stability index at 5 or higher means Y, lower means N.

* P18F | N
* P20A | Y
* P5F | N
* P20L | N
* P18G | Y
* R22S | Y
* P5A | N
* E16S | Y
* F1H | Y
* R10W | N
* R10K | N
* T24F | N
* I12E | Y
* T24D | N
* Q11I | N
* G17E | Y
* A21R | N
* R22N | Y
* P5R | N
